Biological target: Homeobox protein Hox-A13 (Mus musculus)
Experiment: inhibitors of HoxA13-DNA binding, primary screen, biochemical, fluorescence polarization, labeled oligonucleotide (AID 1185)
Details: 15 min, higher = more signal, called active from +8 up or from −8 down
assayMetric: z-score
I'd appreciate a reply containing only the number, no unit.

Sample answers from the record:
>>> observed("O=C1CCCC=C1C(O)CCOC(c1ccccc1)(c1ccccc1)c1ccccc1 (configuration not stated)")
-4.61
>>> observed("COC(=O)[C@H]1[C@@H](O)[C@@]2(O)c3ccccc3O[C@@]2(c2ccccc2)[C@@H]1c1ccccc1")
-1.51
>>> observed("CCOC(=O)NN=C1C[C@@H](O)[C@@H](O)[C@@H]2[C@@H]3C(=O)N(c4cccc(Oc5ccccc5)c4)C(=O)[C@@H]3CC[C@H]12")
1.22
>>> observed("C#CCCCON=C1C[C@@H](O)[C@@H](O)[C@@H]2[C@@H]3C(=O)N(CC)C(=O)[C@@H]3CC[C@@H]12")
-0.918
>>> observed("O=C1[C@H]2[C@H]3[C@H](O)[C@H](O)CC(=NO[C@@H]4O[C@H](CO)[C@@H](O)[C@H](O)[C@H]4O)[C@H]3CC[C@H]2C(=O)N1c1cccc(Oc2ccccc2)c1")
-1.68

Tested system Homeobox protein Hox-A13 (Mus musculus); z-score recorded for `CO[C@H](C1CCCCC1)[C@H](C)C=CCC(=O)OCCCc1ccccc1` was 1.25

Tested system Homeobox protein Hox-A13 (Mus musculus); z-score recorded for `CO[C@H]1COC(=O)CCC[C@@H](C)[C@H](OC)COC(=O)[C@@H]2CCCN2C(=O)CC=C[C@@H]1C` was -0.0208

----------
Assay: yeast growth modulation, basal conditions, primary screen, YJM789 clinical isolate, OD600, 24 h (AID 1089);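 further: growth of clinical yeast isolate S. cerevisiae YJM 789 seeded 1000 cells per well; test concentration not given here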
Settings: S. cerevisiae YJM789 growth, higher = more signal, called active from +8 up or from −8 down
assayMetric: z-score
I'd appreciate a reply containing only the number, no unit.

Sample answers from the record:
>>> observed("COC(=O)[C@H]1O[C@@H](c2c(OC)c(OC)c(C)c(OC)c2OC)[C@H](C)[C@@H](O)[C@H]1C")
0.234
>>> observed("CCc1cc2c(nc1CC)CCN(CCC(C)=NO[C@@H](C)c1cn([C@H](CO)Cc3ccccc3)nn1)C2")
0.687
>>> observed("O=C1[C@H]2[C@H]3[C@H](O)[C@H](O)CC(=NOCc4ccccc4)[C@@H]3CC[C@H]2C(=O)N1C[C@@H]1CCCO1")
-0.857

So for CCOC(=O)[C@H](Cc1ccccc1)NC(=O)CCC1CC(OC(=O)NCc2ccc3c(c2)OCO3)CC2(CCCC(COC(=O)NCCc3ccccc3OC)O2)O1 (some centres not stated) , the logged z-score turned out to be 0.163

So for `O=c1n(-c2ccccc2)c(=O)n2n1CC[C@@H]1C(=NOCc3ccccc3)[C@H]3O[C@H]3[C@@H](O)[C@@H]12` , the logged z-score turned out to be -0.434

So for `CCN1C(=O)[C@H]2[C@H]3[C@H](O)[C@H](O)CC(=NOC[C@H]4O[C@H](c5ccccc5)C=C[C@@H]4Oc4ccc(OC)cc4)[C@@H]3CC[C@H]2C1=O` , the logged z-score turned out to be -0.125

So for `CO[C@@H]1C=CCC(=O)N2CCC[C@H]2C(=O)OC[C@@H](C)C(=O)OC[C@H]1C` , the logged z-score turned out to be -0.0313
